Values were extracted from ChEMBL document CHEMBL4229529.

Acetylcholinesterase (Homo sapiens, UniProt P22303) measurements of pIC50, listed per entry.
Sequence (P22303 whole entry): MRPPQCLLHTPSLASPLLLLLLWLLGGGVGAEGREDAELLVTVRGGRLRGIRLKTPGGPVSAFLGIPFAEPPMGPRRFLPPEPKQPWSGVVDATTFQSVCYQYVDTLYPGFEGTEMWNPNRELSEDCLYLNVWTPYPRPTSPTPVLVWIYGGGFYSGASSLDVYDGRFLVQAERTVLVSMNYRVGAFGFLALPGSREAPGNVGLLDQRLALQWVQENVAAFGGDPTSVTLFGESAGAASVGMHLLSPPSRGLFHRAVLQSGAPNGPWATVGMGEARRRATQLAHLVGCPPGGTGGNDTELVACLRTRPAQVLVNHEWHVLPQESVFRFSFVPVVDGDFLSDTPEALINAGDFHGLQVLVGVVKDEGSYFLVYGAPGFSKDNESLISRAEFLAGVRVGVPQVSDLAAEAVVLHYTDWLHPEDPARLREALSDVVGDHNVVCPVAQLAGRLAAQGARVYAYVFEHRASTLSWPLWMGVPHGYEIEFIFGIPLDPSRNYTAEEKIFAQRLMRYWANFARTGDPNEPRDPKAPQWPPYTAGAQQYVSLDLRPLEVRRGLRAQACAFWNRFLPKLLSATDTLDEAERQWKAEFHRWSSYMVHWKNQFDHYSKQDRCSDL
pIC50: −log10 of the molar value.

These recorded examples may help you get a feel for the data.
1) CCOc1cccc2c(=O)c3c(oc12)CCN(/C(=C/C(=O)OC)C(=O)OC)C3: < 4.70
2) CCOc1cccc2c(=O)c3c(oc12)CCN(Cc1ccccc1)C3: < 4.70

Task: Form field - read-out: pIC50; system: Acetylcholinesterase (Homo sapiens, UniProt P22303); submitted item: C=Cc1oc2ccccc2c(=O)c1CN(/C=C/C(C)=O)Cc1ccccc1
Output: < 4.70

====

Measured inhibition at 10 min, 20 µM, listed per entry for reference.
measurement target: Liver carboxylesterase (Sus scrofa)
Sequence (Q29550 whole entry): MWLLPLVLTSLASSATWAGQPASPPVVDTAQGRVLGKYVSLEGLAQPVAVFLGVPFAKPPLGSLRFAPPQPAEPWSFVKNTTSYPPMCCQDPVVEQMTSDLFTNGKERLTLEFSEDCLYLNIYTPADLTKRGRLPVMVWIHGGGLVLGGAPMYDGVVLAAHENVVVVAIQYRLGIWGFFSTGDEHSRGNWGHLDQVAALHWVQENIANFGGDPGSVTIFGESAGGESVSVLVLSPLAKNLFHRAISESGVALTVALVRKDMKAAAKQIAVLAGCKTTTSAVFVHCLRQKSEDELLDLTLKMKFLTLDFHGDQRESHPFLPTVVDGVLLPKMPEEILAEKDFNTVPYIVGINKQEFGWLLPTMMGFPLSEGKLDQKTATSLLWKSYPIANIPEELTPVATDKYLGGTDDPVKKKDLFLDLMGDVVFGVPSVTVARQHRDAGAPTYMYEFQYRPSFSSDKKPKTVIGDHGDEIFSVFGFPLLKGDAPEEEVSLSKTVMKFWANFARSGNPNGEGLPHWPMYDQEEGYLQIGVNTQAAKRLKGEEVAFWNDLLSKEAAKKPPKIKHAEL
protocol details: in vitro
condition info: pig, porcine liver carboxylesterase, probe 4-nitrophenol acetate
Description: Inhibition of porcine liver carboxylesterase at 20 uM using 4-nitrophenol acetate as substrate incubated for 10 mins followed by substrate addition by spectrophotometric method relative to control
Give just the numeric value; % need not be written.

1. C=Cc1oc2ccc(Br)cc2c(=O)c1CN(Cc1ccccc1)/C(=C/C(=O)OC)C(=O)OC: 15.2
2. COC(=O)/C=C(\C(=O)OC)N1CCc2oc3ccccc3c(=O)c2C1: 19.8
3. C=Cc1oc2ccccc2c(=O)c1CN(Cc1ccccc1)/C(=C/C(=O)OC)C(=O)OC: 26.4

Task: Which inhibition at 10 min, 20 µM is reported for this compound? C=Cc1oc2ccc(Br)cc2c(=O)c1CN(/C=C/C(C)=O)Cc1ccccc1
Output: 4.6

Task: Which inhibition at 10 min, 20 µM is reported for this compound? C=Cc1oc2c(OCC)cccc2c(=O)c1CN(/C=C/C(=O)OC)Cc1ccccc1
Output: 25.9

Task: Which inhibition at 10 min, 20 µM is reported for this compound? COC(=O)/C=C(\C(=O)OC)N1CCc2oc3ccc(Br)cc3c(=O)c2C1
Output: 5.1

Task: Which inhibition at 10 min, 20 µM is reported for this compound? O=c1c2c(oc3ccc(Br)cc13)CCN(Cc1ccccc1)C2
Output: 31.2

Task: Which inhibition at 10 min, 20 µM is reported for this compound? CCOc1cccc2c(=O)c3c(oc12)CCN(/C(=C/C(=O)OC)C(=O)OC)C3
Output: 3.5

Task: Which inhibition at 10 min, 20 µM is reported for this compound? C=Cc1oc2ccccc2c(=O)c1CN(C)/C=C/C(=O)OC
Output: 6.3

Task: Which inhibition at 10 min, 20 µM is reported for this compound? C=Cc1oc2ccccc2c(=O)c1CN(/C=C/C(C)=O)Cc1ccccc1
Output: 10

====

measurement target: Liver carboxylesterase (Sus scrofa, UniProt Q29550)
Sequence (Q29550 whole entry): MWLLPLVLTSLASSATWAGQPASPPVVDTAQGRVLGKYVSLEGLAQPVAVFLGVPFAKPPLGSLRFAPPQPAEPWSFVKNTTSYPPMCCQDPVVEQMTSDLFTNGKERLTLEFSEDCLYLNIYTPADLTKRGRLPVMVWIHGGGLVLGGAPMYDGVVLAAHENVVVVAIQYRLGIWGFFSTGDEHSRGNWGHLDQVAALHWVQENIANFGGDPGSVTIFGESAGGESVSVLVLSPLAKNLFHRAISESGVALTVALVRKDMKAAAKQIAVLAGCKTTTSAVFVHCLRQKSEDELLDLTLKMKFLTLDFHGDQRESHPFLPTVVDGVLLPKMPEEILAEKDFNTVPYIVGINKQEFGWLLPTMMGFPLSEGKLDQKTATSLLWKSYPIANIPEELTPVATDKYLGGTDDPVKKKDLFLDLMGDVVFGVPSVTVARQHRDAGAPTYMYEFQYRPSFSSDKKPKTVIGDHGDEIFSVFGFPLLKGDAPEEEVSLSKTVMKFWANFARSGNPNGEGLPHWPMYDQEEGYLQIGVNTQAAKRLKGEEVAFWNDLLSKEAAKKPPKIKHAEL
protocol details: in vitro
condition info: pig, porcine liver carboxylesterase, probe 4-nitrophenol acetate
measurement kind: inhibition at 10 min, 20 µM
Entry format: amount then unit.

1. CN1CCc2oc3ccccc3c(=O)c2C1: 6.4%
2. C=Cc1oc2c(OCC)cccc2c(=O)c1CN(Cc1ccccc1)/C(=C/C(=O)OC)C(=O)OC: 14.4%
3. C=Cc1oc2c(OCC)cccc2c(=O)c1CN(C)/C=C/C(=O)OC: 7.9%
4. C=Cc1oc2ccc(Br)cc2c(=O)c1CN(C)/C=C/C(=O)OC: 10.5%

Task: Which inhibition at 10 min, 20 µM is reported for this compound? C=Cc1oc2ccc(Br)cc2c(=O)c1CN(/C=C/C(=O)OC)Cc1ccccc1
Output: 22.4%

Task: Which inhibition at 10 min, 20 µM is reported for this compound? C=Cc1oc2ccccc2c(=O)c1CN(/C=C/C(=O)OC)Cc1ccccc1
Output: 23.6%

Task: Which inhibition at 10 min, 20 µM is reported for this compound? CCOc1cccc2c(=O)c3c(oc12)CCN(C)C3
Output: 7.6%

====

measurement target: Cholinesterase (Equus caballus) (UniProt P81908)
Sequence (P81908 whole entry): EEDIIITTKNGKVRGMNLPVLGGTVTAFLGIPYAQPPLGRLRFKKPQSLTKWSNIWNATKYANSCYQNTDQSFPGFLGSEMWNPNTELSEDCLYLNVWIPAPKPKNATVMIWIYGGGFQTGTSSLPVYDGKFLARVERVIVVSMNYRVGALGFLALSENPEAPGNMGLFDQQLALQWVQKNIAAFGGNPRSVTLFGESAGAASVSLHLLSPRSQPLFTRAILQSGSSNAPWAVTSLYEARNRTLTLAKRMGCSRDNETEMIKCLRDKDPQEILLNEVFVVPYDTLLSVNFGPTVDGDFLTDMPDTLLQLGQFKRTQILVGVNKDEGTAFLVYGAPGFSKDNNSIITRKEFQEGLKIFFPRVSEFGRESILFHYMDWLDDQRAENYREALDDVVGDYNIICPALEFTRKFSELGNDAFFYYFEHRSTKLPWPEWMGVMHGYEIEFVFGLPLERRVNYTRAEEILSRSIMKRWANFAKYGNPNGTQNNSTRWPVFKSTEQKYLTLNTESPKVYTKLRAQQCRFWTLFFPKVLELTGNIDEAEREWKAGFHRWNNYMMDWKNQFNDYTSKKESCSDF
protocol details: Inhibition of equine serum BChE at 20 uM using butylthiocholine iodide as substrate incubated for 10 mins followed by substrate addition by Ellman's method relative to control
Activity calls are given as the source filed them. No cut-off for these calls is given here.
measurement kind: inhibition

These recorded examples may help you get a feel for the data.
1) CN1CCc2oc3ccccc3c(=O)c2C1: inactive
2) COC(=O)/C=C(\C(=O)OC)N1CCc2oc3ccc(Br)cc3c(=O)c2C1: 4.3%
3) CCOc1cccc2c(=O)c3c(oc12)CCN(/C(=C/C(=O)OC)C(=O)OC)C3: 20.7%
4) O=c1c2c(oc3ccc(Br)cc13)CCN(Cc1ccccc1)C2: 3.3%
5) CN1CCc2oc3ccc(Br)cc3c(=O)c2C1: 4.2%
6) CCOc1cccc2c(=O)c3c(oc12)CCN(C)C3: inactive
7) C=Cc1oc2c(OCC)cccc2c(=O)c1CN(Cc1ccccc1)/C(=C/C(=O)OC)C(=O)OC: 11.2%
8) C=Cc1oc2ccc(Br)cc2c(=O)c1CN(Cc1ccccc1)/C(=C/C(=O)OC)C(=O)OC: 21.9%
9) C=Cc1oc2c(OCC)cccc2c(=O)c1CN(C)/C=C/C(=O)OC: inactive
10) CCOc1cccc2c(=O)c3c(oc12)CCN(Cc1ccccc1)C3: 13.2%

# evaluate next
Task: Which inhibition is reported for this compound? C=Cc1oc2c(OCC)cccc2c(=O)c1CN(/C=C/C(=O)OC)Cc1ccccc1
Output: 16.3%

====

measurement target: UniProtKB P81908
protocol details: Competitive inhibition of equine serum BChE using butylthiocholine iodide as substrate incubated for 10 mins followed by substrate addition by Lineweaver-Burk double-reciprocal plot analysis
Measured pKi, listed per entry for reference.
Remember, pKi is on a log scale: it is -log10 of the molar concentration.

1. C=Cc1oc2ccccc2c(=O)c1CN(/C=C/C(C)=O)Cc1ccccc1: 5.67
2. C=Cc1oc2ccc(Br)cc2c(=O)c1CN(/C=C/C(=O)OC)Cc1ccccc1: 5.81

Task: Which pKi is reported for this compound? C=Cc1oc2ccccc2c(=O)c1CN(/C=C/C(=O)OC)Cc1ccccc1
Output: 5.75

====

measurement target: Cholinesterase (Equus caballus) (UniProt P81908)
protocol details: Inhibition of equine serum BChE at 20 uM using butylthiocholine iodide as substrate incubated for 10 mins followed by substrate addition by Ellman's method relative to control
Measured inhibition, listed per entry for reference.

1) O=c1c2c(oc3ccccc13)CCN(Cc1ccccc1)C2: 13%
2) C=Cc1oc2ccccc2c(=O)c1CN(C)/C=C/C(=O)OC: 18.4%

Task: Which inhibition is reported for this compound? C=Cc1oc2ccc(Br)cc2c(=O)c1CN(C)/C=C/C(=O)OC
Output: 14.1%

Task: Which inhibition is reported for this compound? COC(=O)/C=C(\C(=O)OC)N1CCc2oc3ccccc3c(=O)c2C1
Output: 7.5%

====

pIC50: −log10 of the molar value.
UniProt P81908 measurements of pIC50, listed per entry.

These recorded examples may help you get a feel for the data.
1) C=Cc1oc2c(OCC)cccc2c(=O)c1CN(/C=C/C(=O)OC)Cc1ccccc1: < 4.70
2) C=Cc1oc2ccccc2c(=O)c1CN(/C=C/C(=O)OC)Cc1ccccc1: 5.20
3) CN1CCc2oc3ccc(Br)cc3c(=O)c2C1: < 4.70
4) COC(=O)/C=C(\C(=O)OC)N1CCc2oc3ccc(Br)cc3c(=O)c2C1: < 4.70
5) C=Cc1oc2c(OCC)cccc2c(=O)c1CN(/C=C/C(C)=O)Cc1ccccc1: 4.30
6) C=Cc1oc2ccc(Br)cc2c(=O)c1CN(C)/C=C/C(=O)OC: < 4.70
7) C=Cc1oc2ccc(Br)cc2c(=O)c1CN(/C=C/C(=O)OC)Cc1ccccc1: 5.64
8) O=c1c2c(oc3ccc(Br)cc13)CCN(Cc1ccccc1)C2: < 4.70

Task: Form field - read-out: pIC50; system: UniProt P81908; submitted item: C=Cc1oc2ccccc2c(=O)c1CN(C)/C=C/C(=O)OC
Output: < 4.70

Task: Form field - read-out: pIC50; system: UniProt P81908; submitted item: C=Cc1oc2ccccc2c(=O)c1CN(Cc1ccccc1)/C(=C/C(=O)OC)C(=O)OC
Output: 4.86

Task: Form field - read-out: pIC50; system: UniProt P81908; submitted item: CCOc1cccc2c(=O)c3c(oc12)CCN(Cc1ccccc1)C3
Output: < 4.70

Task: Form field - read-out: pIC50; system: UniProt P81908; submitted item: C=Cc1oc2ccccc2c(=O)c1CN(/C=C/C(C)=O)Cc1ccccc1
Output: 5.32

Task: Form field - read-out: pIC50; system: UniProt P81908; submitted item: CCOc1cccc2c(=O)c3c(oc12)CCN(/C(=C/C(=O)OC)C(=O)OC)C3
Output: < 4.70

Task: Form field - read-out: pIC50; system: UniProt P81908; submitted item: C=Cc1oc2c(OCC)cccc2c(=O)c1CN(Cc1ccccc1)/C(=C/C(=O)OC)C(=O)OC
Output: < 4.70

Task: Form field - read-out: pIC50; system: UniProt P81908; submitted item: O=c1c2c(oc3ccccc13)CCN(Cc1ccccc1)C2
Output: < 4.70

Task: Form field - read-out: pIC50; system: UniProt P81908; submitted item: C=Cc1oc2ccc(Br)cc2c(=O)c1CN(/C=C/C(C)=O)Cc1ccccc1
Output: 4.87

Task: Form field - read-out: pIC50; system: UniProt P81908; submitted item: C=Cc1oc2ccc(Br)cc2c(=O)c1CN(Cc1ccccc1)/C(=C/C(=O)OC)C(=O)OC
Output: < 4.70

Task: Form field - read-out: pIC50; system: UniProt P81908; submitted item: COC(=O)/C=C(\C(=O)OC)N1CCc2oc3ccccc3c(=O)c2C1
Output: < 4.70
